test: soluble on expression in E. coli; label from the status in PepcDB or PDB records
Reported property: soluble on expression in E. coli

>  <Primary sequence>
MPEPTPTAYPVRLDELINAIKRVHSDVLDQLSDAVLAAEHLGEIADHLIGHFVDQARRSGASWSDIGKSMGVTKQAAQKRFVPRAEATTLDSNQGFRRFTPRARNAVVAAQNAAHGAASSEITPDHLLLGVLTDPAALATALLQQQEIDIATLRTAVTLPPAVTEPPQPIPFSGPARKVLELTFREALRLGHNYIGTEHLLLALLELEDGDGPLHRSGVDKSRAEADLITTLASLTGANAAGATDAGATDAG

>  <Reported property>
soluble on expression in E. coli

>  <Measured>
soluble

$$$$
>  <Primary sequence>
MIFVLDVGNTNTVLGVYDGDELKHHWRIETSRSKTEDEYGMMIKALLNHVGLQFSDIRGIIISSVVPPIMFALERMCLKYFHIKPLIVGPGIKTGLDIKYDNPREVGADRIVNAVAGIHLYGSPLIIVDFGTATTYCYINEHKQYMGGAIAPGIMISTEALFARAAKLPRIEIARPDDIIGKNTVSAMQAGILYGYVGQVEGIVSRMKAKSKIPPKVIATGGLAPLIASESDIIDVVDPFLTLTGLKLLYEKNTEKKG

>  <Reported property>
soluble on expression in E. coli

>  <Measured>
soluble

$$$$
